# procedure summary: endothelial E-selectin expression blockers – imaging, HUVEC, immunofluorescence, MLSMR starter and 10KST1 sets, primary screen (AID 487);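 note: signal is fraction of cell area covered by stained E-selectin grains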
# measurement conditions: HUVEC TNFalpha-induced E-selectin immunofluorescence imaging, at 2 µM; stronger effect = higher value
Classify as follows. Reported inhibition greater than or equal to -20%: satisfied. Reported inhibition below: not satisfied.

molecule: CC1Cc2ccccc2N1C(=O)c1cccnc1 (centres undefined)
label value: not satisfied

molecule: COc1cc(C2c3c(oc4c(C)cc(C)cc4c3=O)C(=O)N2Cc2cccnc2)cc(OC)c1OC (centres undefined)
label value: satisfied

molecule: COc1ccc(OC)c(C2=NOC(C(=O)Nc3cc(C)nn3-c3ccccc3)C2)c1 (centres undefined)
label value: satisfied

molecule: O=c1c2[nH]c3cccc(Cl)c3c2ncn1CCN1CCCCC1
label value: satisfied

molecule: O=C(NCc1nc2ccccc2[nH]1)c1ccco1
label value: not satisfied

molecule: O=C(c1cccc2c1C(=O)N(Cc1cccnc1)C2)N1CCN(c2ccccc2)CC1
label value: not satisfied

molecule: O=C(Nc1cccc(NC(=O)c2ccco2)c1)c1ccc2c(c1)OCO2
label value: not satisfied

molecule: CCC(=O)Nc1cc(Cl)ccc1N1CCN(C(=O)CC)CC1
label value: satisfied

molecule: CN1CCN(c2nc3c(c(=O)[nH]c(=O)n3C)n2CCSc2nc3ccccc3s2)CC1
label value: satisfied

---

Attribute: cell count
# procedure summary: inhibitors of TNFa-induced NFkB p65 translocation, primary screen, imaging, HUVEC, MLSMR starter and 10KST1 sets (AID 438);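 note: compound added about 3h40 before a 20 min TNFalpha stimulation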
# measurement conditions: HUVEC TNFa-induced p65 nuclear translocation; measured here: nuclei count (cytotoxicity indicator), at 2.08 µM

compound: Cc1nc(-c2cccc(-c3noc(C)n3)c2)no1
cell count: 341
//
compound: COc1ccccc1-c1nc(SCc2ccccn2)n[nH]1
cell count: 509
//
compound: COc1ccc(C(NC(C)=O)c2ccc3cccnc3c2O)c(OC)c1 (centres undefined)
cell count: 444
//
compound: CCCCCOC(=O)CSc1nnc(-c2cc(OC)c(OC)c(OC)c2)o1
cell count: 747
//
compound: Cc1nnc(NC(=O)c2ccccc2F)s1
cell count: 421
//
compound: O=S(CC(O)COCc1ccc(Cl)cc1)c1ccccn1 (centres undefined)
cell count: 420
//
compound: CCOC(=O)C1CCN(c2c(NC3CCCCCCC3)c(=O)c2=O)CC1
cell count: 897
//
compound: O=C(Nc1nc(-c2ccccc2)cs1)C1CCCO1 (centres undefined)
cell count: 440
//
compound: COC(=O)CCC(=O)Nc1ccc(OC)cc1
cell count: 418
//
compound: CC(C)NC(=O)Nc1cccs1
cell count: 708
//
compound: COc1ccc(S(=O)(=O)N2CCCC2C(=O)Nc2ccc(O)cc2)cc1 (centres undefined)
cell count: 601
//
compound: COc1cccc(NC(=O)c2nnn(Cc3ccc(Br)cc3F)c2N)c1
cell count: 674
//
compound: CCCCNC(=O)CN(C1CCCCC1)S(C)(=O)=O
cell count: 422
//
compound: COc1cc(C(=O)NCC(=O)OCC(=O)c2ccc[nH]2)cc(OC)c1OC
cell count: 383
//
compound: CC(C)N(Cc1nc(-c2ccccc2)no1)C(=O)CCCN1C(=O)c2ccccc2C1=O
cell count: 475
//
compound: CCOc1cc(C2NC(=O)N(C)C(C)=C2C(=O)OC)cc(Br)c1O (centres undefined)
cell count: 620
//
compound: O=C(CCCN1C(=O)c2ccccc2C1=O)Oc1ccc(F)cc1
cell count: 735
//
compound: Cc1ccccc1-c1nc(CN2CCC(C(=O)NCCCN3CCCC3)CC2)c(C)o1
cell count: 223
//
compound: COc1ccccc1Nc1nc(N)nc(CSc2nccc(C)n2)n1
cell count: 701
//
compound: COc1ccc(-c2nnc(SCC(=O)N3CCOCC3)o2)cc1OC
cell count: 603
//
compound: O=C(Nc1ccccc1C(=O)N1CCCCCC1)c1cccc(S(=O)(=O)N2CCOCC2)c1
cell count: 492
//
compound: Cc1onc(-c2c(F)cccc2Cl)c1C(=O)Nc1nc2c(s1)CCCC2
cell count: 250
//
compound: NCC(O)COc1ccc2c(c1)OCO2 (centres undefined)
cell count: 378
//
compound: CCN1CCN(CCNC(=O)c2cn(C(C)c3ccccc3F)nn2)CC1 (centres undefined)
cell count: 560
//
compound: COCCn1nnnc1C(C(C)C)N(Cc1cccnc1)Cc1ccccc1Cl (centres undefined)
cell count: 526
//
compound: Cc1ccc(CN2CCN(C(=O)C3CCC3)CC2)cc1
cell count: 361
//
compound: O=C(CCN1CCN(CCO)CC1)Nc1ccc(OCc2ccccc2)cc1
cell count: 278
//
compound: CC1Cc2ccccc2N1C(=O)c1cccnc1 (centres undefined)
cell count: 254
//
compound: CCOC(=O)N1CCN(C(=O)C2c3cc(OC)c(OC)cc3C(=O)N3CCc4ccccc4C23)CC1 (centres undefined)
cell count: 312
//
compound: CC(C)CNS(=O)(=O)c1ccc(CCC(=O)NCc2ccco2)cc1
cell count: 572
//
compound: Cc1noc(C)c1CSc1nnc(-c2ccncc2)n1-c1cccc(Cl)c1C
cell count: 344
//
compound: CSc1ncc(Cl)c(C(=O)Nc2ccc(S(=O)(=O)N3CCOCC3)cc2)n1
cell count: 288
//
compound: COc1cc(NC(=O)c2ccco2)c(OC)cc1NC(=O)CCC(=O)Nc1cc(C)cc(C)c1
cell count: 534
//
compound: Nc1nnc(SCC(=O)N2CCN(c3ccccc3)CC2)n1-c1ccccc1
cell count: 774
//
compound: N#Cc1ccc(CSc2nnc(-c3ccccn3)n2-c2ccccc2)cc1
cell count: 363
//
compound: COc1ccc(OC)c(S(=O)(=O)Nc2ccc(O)c3ccccc23)c1
cell count: 382
//
compound: COc1cccc(NC(=O)COc2ccccc2C(N)=O)c1
cell count: 221
//
compound: COc1ccc(C(=O)CN2C(=O)NC3(CCCc4ccccc43)C2=O)cc1OC (centres undefined)
cell count: 412
//
compound: O=C(NC1=NCCS1)c1ccc2c(c1)C(=O)N(Cc1ccco1)C2=O
cell count: 447
//
compound: CS(=O)(=O)N1CCCC(C(=O)NCCCN2CCc3ccccc3C2)C1 (centres undefined)
cell count: 228
//
compound: COc1ccc(-n2nnnc2-c2cccc(OC)c2)cc1
cell count: 573
//
compound: FC(F)(F)c1nnc2ccc(NCn3nnc4ccccc43)nn12
cell count: 562
//
compound: CSc1ccccc1NC(=O)c1noc2c1CCC2
cell count: 416
//
compound: CCN1CCN(Cc2ccc(NC(=O)Nc3ccccc3)cc2)CC1
cell count: 552
